This listing pairs binders with measured kon.
Molecular target: T1, hMDL-1-hIG (human, UniProt Q9NY25 28-188)
T1 construct: Fusion of human MDL-1 with human Ig used in the BIAcore assay; MDL-1 is a type II membrane protein, so the Ig part may stand N-terminal; also called MDL-1-hIg ligand; not shown: human Ig part (hIG)
T1 sequence: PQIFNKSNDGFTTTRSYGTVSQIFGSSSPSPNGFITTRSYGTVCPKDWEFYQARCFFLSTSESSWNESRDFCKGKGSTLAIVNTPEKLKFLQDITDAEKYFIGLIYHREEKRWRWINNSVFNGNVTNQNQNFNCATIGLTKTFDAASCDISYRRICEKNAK
Experiment: BIAcore SPR; hMDL-1-hIG as capture antigen on the chip, mAb as analyte
// note: answer is a bare numeric in M⁻¹ s⁻¹

Sample records with kon:
Binder	Test Value
DX230 (antibody, V domains shown, Rodent anti-human MDL-1 monoclonal antibody from a hybridoma; VL of the kappa subclass; also called anti-MDL-1 antibody clone DX230; ATCC PTA-8373) VH: EVQLVESGGDLVKPGGSLKLSCAASGFAFSNYDMSWVRQTPEKRLEWVAYISGGGGTTYYSDTVKGRFTISRDNAKNTLYLQMSSLKSEDTAMYYCVRHAVYYGKPYWGQGTTLTVSS VL: DIVLTQSPPSLAVSLGQRATVSCRASESVEHYGTGLMQWYQQKPGQPPRLLIYAASNVESGVPARFSGSGSGTDFSLNIHPVEEDDIAMYFCQQSRKVPWTFGGGTKLEIKR	63000
DX246 (antibody, V domains shown, Rodent anti-human MDL-1 monoclonal antibody from a hybridoma; VL of the kappa subclass; also called anti-MDL-1 antibody clone DX246; ATCC PTA-8376) VH: QVTLKESGPGILKPSQTLSLTCSFSGFSLSTSGMNVGWIRQPSGKGLEWLAHIWWDDDKYYNPSLKSQLTISKDTSRNQVFLKITSVDTADTATYYCARRAFYGSNYDYYAMDYWGQGTSVTVSS VL: ENVLTQSPAIMSASPGEKVTMTCSVSSSVSYIHWYQQKSSTSPKLWIYDTSKLASGVPGRFSGSGSGNSYSLTISSMEAEDVATYYCFQGSGYPLTFGAGTKLELKR	644000
DX241 (antibody, V domains shown, Rodent anti-human MDL-1 monoclonal antibody from a hybridoma; VL of the kappa subclass; also called anti-MDL-1 antibody clone DX241; ATCC PTA-8374) VH: DVKLVESGGGLVKLGGSLKLSCAASGFTFSSYYMSWVRQTPDKRLELVAAINSNGGTTYYPDTVKGRFTISRDNAKNTLYLQMSSLKPEDTALFYCVRDGEFGHYFDYWGQGTTLTVSS VL: SIVMTQTPKFLLVSAGDRVTITCKASQSVNNDVAWYQQKPGQSPKLLIYYASNRYTGVPDRFTGSGYGTDFTFTISTVQAEDLAVYFCQQDYNSPLTFGAGTKLELKR	354000

Prompt line: Any idea what its kon is? The binder is DX244 (antibody, V domains shown, Parental rodent anti-human MDL-1 monoclonal antibody (not the humanized form); VL of the kappa subclass; also called anti-MDL-1 antibody clone DX244; ATCC PTA-8375) VH: QIQLVQSGPELKKPGETVKISCKASGYTFTIYAMNWVKQAPGKGLEWMGWINTDTGEPTYADDFKGRFAFSLETSASTAYLQINNLKNEDMATYFCARSSEVFYDYRFDYWGQGTALTVSS VL: DIQMTQSPSSLSASLGERVSLTCRASQDIGSSLNWLQQEPDGTIKRLIYATSNLDSGVPKRFSGSRSGSDYSLTISSLESEDFVHYYCLQYASSPFTFGSGTKLEIKR
Response line: 277000

Provenance of the data: patent US8153134
